# maps each entry to its apparent KD of MS2 coat protein
# System: MS2 coat protein
# assay-explanation: apparent KD of MS2 coat protein; designed switch direction (-1 OFF switch, 1 ON switch): -1; higher = weaker reporter binding
# test-settings: Eterna round: R95; input ligand: FMN 200 uM
experimental-readout: apparent KD of MS2 coat protein (nM)

>>> value_observed("AAGAAACAUGAGGAUCACCCAUGUGAGGAUAUGACCAAGAAAAGAAAAGAAAGAAGAGUCAGAAGGCACAAAGG [salish99-ex1_r3_066] (puzzle: Exclusion 1)")
99.7
>>> value_observed("CUUAGACAUGAGGAUCACCCAUGUGAGGAUAUGAAAUUAAUUAAUUAUUAAUUAUUAAUCAGAAGGCACAUAUG [Mat - Mod of Hyphema D38] (puzzle: Exclusion 1)")
79.8
>>> value_observed("AGUACUCACACGAAAGUGUUAGUACAAUAAGCUUGUGAAACAUGAGGAUCACCCAUGUCCUCAUAAGCUCGUCUUAU [salish99_TOv2_r3_018] (puzzle: Sensor v3, turn-off variant 2)")
17.6
>>> value_observed("AAAACACAUGAGGAUCACCCAUGUGAGGAUAUGUUGAUUUUGAUCAAAGUUAAGAUUAACAGAAGGCACAUAAA [JR_Exclusion1_Sub018] (puzzle: Exclusion 1)")
34.5
>>> value_observed("GAGAAGGUAGGAUAUACGAAUAAAUAGGGUAGUAAUAAUACACAUGAGGAUCACCCAUGUAGAAGGACCAAGAG [Mat - Exclusion 2 - Mod of my Tesla design - D39] (puzzle: Exclusion 2)")
38.1

* * *

# Test system: MS2 coat protein
# assay-explanation: apparent KD of MS2 coat protein, switch OFF state (with FMN for OFF switches, without FMN for ON switches); designed switch direction (-1 OFF switch, 1 ON switch): -1; higher = weaker reporter binding
# test-settings: FMN input: 0 or 200 uM; Eterna round: R93 (includes R88 designs)
experimental-readout: apparent KD of MS2 coat protein

>>> value_observed("GAAAAGCAAGGAUAUACAUGAGGAUCACCCAUGUAACCUGAAAGCAUGAUCGGUGACAGUAGAAGGUGCGAAAU [Tixegerice]")
"56.9 nM"
>>> value_observed("GAGAGACAUGAGGAUCACCCAUGUGAGGAUAUCGGGAGGAGGAGGAGGAGGAGGAGGACGAGAAGGCACGGAAG [salish99-Ex1-06]")
"35.3 nM"
>>> value_observed("AGCUAGUCAGGAUAUACGAACAGGUGAAAAGACGUAAGGGAACAUGAGGAUCACCCAUGUAGAAGGGACUAGCA [Diamond 53]")
"99.3 nM"
>>> value_observed("AGCUAGUCAGGAUAUACGAACACGUCAAAAGACGUGAAGGGACAUGAGGAUCACCCAUGUAGAAGGGACUAGCA [Mat - Exclusion 2 - JL mod - D24]")
"114 nM"
>>> value_observed("AAAGGACAUGAGGAUCACCCAUGUGAGGAUAUGACGUAAAGAAAGAAAGAAGAAAUCGUCAGAAGGCACACCUA [Mat - Exclusion 1 - Eli mod - D69]")
"36.5 nM"
>>> value_observed("AAGAAGUGAGGAUAUACAUGAGGAUCACCCAUGUAAAAGAAAGAAAGGGAAAAGAAAAGUAGAAGGCACAAGAA [Usermaatre-setpenre-meryamun Ramesses VII]")
"67.7 nM"

* * *

As shown below, each of these sequences has a reported apparent KD of K4 kissing-loop reporter value.
# System: K4 kissing-loop RNA reporter;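 also: bound reporter read as fluorescence of individual clusters on recovered sequencing chips by microscopy, with normalized cluster intensities fitted with a binding model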
# assay-explanation: apparent KD of K4 kissing-loop reporter; higher = weaker reporter binding
# test-settings: Eterna round: R107; input ligand: theophylline 20 uM
experimental-readout: apparent KD of K4 kissing-loop reporter

>>> value_observed("GGAUAGGACAGAGGAUAUCCUGAGUCUACAAAGUAGGCUCAUAAAGGAUGAAUCCUAGUGAUGUUAGGAGAAGGCUGUCCUAUCG [FmnBX 16 - #SwitchBubble #StaticStem #Palindromic]")
"0.0795 µM"
>>> value_observed("GGAUAGGACAGAGGAUAUCUCUGAGGCAAGAAAACUUGUCUCUAAGGAGAUGACUCAGUGAUGUUGAGAGAAGGCUGUCCUAUCG [FmnBX 12 - #SwitchBubble #StaticStem]")
"0.14 µM"
>>> value_observed("UAUUGAUUGUCAGGAUAUCGUAAACGAGUGAUGUUCGUAUAUUGACGAUAGUCAAUUCUAUCUGAACGAGAAGGGACAUUAUUUA [JR_SSFMNB_Sub009]")
"0.351 µM"
>>> value_observed("UAACUGAAGUGAUGUUUCAGUUCGUCGGAUACCAGUGCCGAUCAUCACCCUUGGCAGCCGUAAUAUUACUUAACAAUGACAGGUU [theeternabot_exclusion_KL_Theo_A_7]")
"0.119 µM"
>>> value_observed("UGAUACCAGACUGAUACCAGCCACAGAGUCAAAGACUCUGAAAAGGAAACCAGUGAUGUUGGCCCUUGGCAGCAGUCUGGUAUCU [TheoBX 15 #SwitchBubble #StaticStem]")
"0.152 µM"

* * *

# Test system: MS2 coat protein
# assay-explanation: apparent KD of MS2 coat protein; designed switch direction (-1 OFF switch, 1 ON switch): -1; higher = weaker reporter binding
# test-settings: Eterna round: R95; input ligand: FMN 200 uM
apparent KD of MS2 coat protein reference
experimental-readout: apparent KD of MS2 coat protein (nM)

>>> value_observed("AAAUGCAAGUAAAGAUCUUACAUGAGGAUCACCCAUGUGCUCGUCUUAUAAAGUACUAUCACGAAAGUGAUAGUACA [Sensor 3, v1 - 27] (puzzle: Sensor v3, turn-off variant 1)")
18.5
>>> value_observed("UCAAGUAUGUAGGAUAUCGAUGUCUACGGACAUCGAGAAGGACGUACAUGAGGAUCACCCAUGUAACUUGCAUG [Exclusion 6 - B - 10:d] (puzzle: Exclusion 6)")
37.2
>>> value_observed("AGUACUAACACGAAAGUGUUAGUACAAUAAGCUUGUGAAACAUGAGGAUCACCCAUGUCCUCAUAAGCUCGUCUUAG [salish99_TOv2_r3_003] (puzzle: Sensor v3, turn-off variant 2)")
16.4
>>> value_observed("AGUAGUUGUUUCCGUUCUUACAUGAGGAUCACCCAUGUUUCUUGACGUGCACGCGAUGCUCGUCAGACUACCAGAUG [salish99_TOv1_r3_057] (puzzle: Sensor v3, turn-off variant 1)")
57.6
>>> value_observed("UUGGUUAUCUAUGGGAGUAACAUGAGGAUCACCCAUGUAUGUCUUGUUUUUUGUUCGUCAUAGGCCUUUUGUUUGGA [JR_SV3TOV1_Sub024] (puzzle: Sensor v3, turn-off variant 1)")
28.6

* * *

# Tested on: MS2 coat protein
# assay-explanation: apparent KD of MS2 coat protein; designed switch direction (-1 OFF switch, 1 ON switch): -1; higher = weaker reporter binding
# test-settings: Eterna round: R95; input ligand: microRNA oligo, concentration not stated
experimental-readout: apparent KD of MS2 coat protein

>>> value_observed("UAAAAGGAUGUCAGGAUAUGCGCUUGGGAUCAAGAGCAGAAGGGACAUGAGGAUCACCCAUGUAACGGUGCGAA [Oraninus] (puzzle: Brourd's mod of Exclusion 4)")
"33.9 nM"
>>> value_observed("CCGCAAAUGGAGGAUAUCGUAUCGGAUACGAUACGAGAAGGCUAAACAUGAGGAUCACCCAUGUGUCCUAGCGG [Fiskers Ex 6 - 34] (puzzle: Exclusion 6)")
"10.9 nM"
>>> value_observed("AAAAAACAAGGAUAUACAAAAAAAAAAAGUGAAAAAAAACCACAUGAGGAUCACCCAUGUAGAAGGUGUAAAAA [JR_Exclusion2_Sub002] (puzzle: Exclusion 2)")
"37.1 nM"
>>> value_observed("AUAUUAACAUAGGAUAUCGAAUUUAUCAUUUAACGAGAAGGAUGAACAUGAGGAUCACCCAUGUGGUAUCAUGG [Mat - Exclusion 6 - JL Mod - D1] (puzzle: Exclusion 6)")
"144 nM"
>>> value_observed("AUAUUACGAGGAUAUCGUUUUUUUCACAUGAGGAUCACCCAUGUUAUUUAUGUUUCGUUUCGAGAAGGCGUAAGUU [JR_E5_Sub069] (puzzle: Exclusion 5)")
"22.3 nM"
>>> value_observed("GGAUCGUAUGUCAGGAUAUACCACUGGAUACAGUGGUAGAAGGGACAUGAGGAUCACCCAUGUCUUAUCGAUCC [Fiskers BMX 4 - 52] (puzzle: Brourd's mod of Exclusion 4)")
"14.3 nM"
>>> value_observed("AAUAACAGAGGAUAUACUAUUUUAUGUGUUUGUUAUUUUAAACAUGAGGAUCACCCAUGUAGAAGGCUGAUUAA [JMF 44] (puzzle: Exclusion 2)")
"38.5 nM"
>>> value_observed("AGUACUAACACGAACGUGUUAGUACAAUAAGCUUGUGAAACAUGAGGAUCACCCAUGUCCUCAUAAGCUCGUCUUAU [salish99_TOv2_r3_034] (puzzle: Sensor v3, turn-off variant 2)")
"775 nM"
>>> value_observed("AAUAACAGAGGAUAUACUGUUUUAUGUGUUUAUUGUUUUGAACAUGAGGAUCACCCAUGUAGAAGGCUGAAUAA [JMF 25] (puzzle: Exclusion 2)")
"20.1 nM"
>>> value_observed("AAAUAAUAGAUAAAAUAAAACAUGAGGAUCACCCAUGUGGGAAGAUGAGGGUGAAACAAGCUUUUUGCUCGUCUUAU (puzzle: Sensor v3, turn-off variant 1)")
"754 nM"
>>> value_observed("AAUUCACAUGAGGAUCACCCAUGUCAGGAUAUGGUUUCACGUGUUUCUGUGCUUGAGGCCAGAAGGGACAGCUA (puzzle: Exclusion 1)")
"50.3 nM"
